Values were extracted from the supplement of paper PMC13380429.

Each entry below carries its recorded inhibition of SARS-CoV-2 cytopathic effect.
# Tested on: Vero E6 infected with SARS-CoV-2
# assay-summary: inhibition of SARS-CoV-2 cytopathic effect; higher = more antiviral protection, active = above 15
# particulars: 100 nM; 48 h
readout: inhibition of SARS-CoV-2 cytopathic effect (%)

compound: CC(C)Oc1ccc(-c2nn([C@@H](C)c3oc4ccc(F)cc4c(=O)c3-c3cccc(F)c3)c3ncnc(N)c23)cc1F
recorded-measurement: 0.14

compound: Cc1cc(Nc2ncnc3ccc(NC4=NC(C)(C)CO4)cc23)ccc1Oc1ccn2ncnc2c1
recorded-measurement: -5.16

compound: CN(C)NC(=O)CCC(=O)O [daminozide]
recorded-measurement: 0.35

compound: CC(=O)OCC(=O)NCCCOc1cccc(CN2CCCCC2)c1 [roxatidine-acetate]
recorded-measurement: -0.37

compound: CCOCCOc1ccccc1C(N)=O [etosalamide]
recorded-measurement: -5.45
